Measured EC50 accompanies every entry in the list below.
Measured target: UniProt Q924U1
Sequence (Q924U1 whole entry): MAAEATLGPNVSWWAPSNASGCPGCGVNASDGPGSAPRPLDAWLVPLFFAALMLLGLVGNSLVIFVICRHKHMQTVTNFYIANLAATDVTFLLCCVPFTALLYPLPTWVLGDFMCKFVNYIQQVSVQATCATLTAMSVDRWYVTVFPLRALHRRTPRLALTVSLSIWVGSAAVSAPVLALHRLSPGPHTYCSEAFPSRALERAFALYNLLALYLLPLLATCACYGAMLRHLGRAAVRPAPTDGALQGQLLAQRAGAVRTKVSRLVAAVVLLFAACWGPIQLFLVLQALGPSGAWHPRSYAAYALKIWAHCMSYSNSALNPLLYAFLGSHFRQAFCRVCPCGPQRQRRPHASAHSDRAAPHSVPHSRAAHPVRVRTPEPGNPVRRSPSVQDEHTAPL
Assay details: Agonist activity at rat KISS1R expressed in CHO/dhfr cells assessed as increase in intracellular Ca2+ levels measured for 180 secs by Fluo 3-AM dye based FLIPR assay
Where a SMILES comes first, the peptide text is derived from it. [ ]: non-standard residue; d: D form. Phe(3-F) = N[C@@H](Cc1cccc(F)c1)C(=O)O; Arg(Me) = CNC(=N)NCCC[C@H](N)C(=O)O; Pip = O=C(O)[C@@H]1CCCCN1; 2Abz = Nc1ccccc1C(=O)O; azaGly = NNC(=O)O
Report the figure in nM without appending any unit label.

# example entries with known answers
CNC(=N)NCCC[C@H](NC(=O)[C@H](CC(C)C)NC(=O)NNC(=O)[C@H](Cc1ccccc1)NC(=O)[C@@H](NC(=O)[C@H](CC(N)=O)NC(=O)C1CN(C(=O)[C@@H](Cc2ccc(O)cc2)NC(C)=O)C1)[C@@H](C)O)C(=O)N[C@@H](Cc1c[nH]c2ccccc12)C(N)=O
15
CNC(=N)NCCC[C@H](NC(=O)[C@H](CC(C)C)NC(=O)NNC(=O)[C@H](Cc1cccc(F)c1)NC(=O)[C@@H](NC(=O)[C@H](CC(N)=O)NC(=O)[C@@H](Cc1c[nH]c2ccccc12)NC(=O)[C@@H](Cc1ccc(O)cc1)NC(C)=O)[C@@H](C)O)C(=O)N[C@@H](Cc1c[nH]c2ccccc12)C(N)=O (Ac-[dY][dW]NT[Phe(3-F)][azaGly]L[Arg(Me)]W-NH2)
4.8

Q: Requested read-out EC50, target or system UniProt Q924U1, entry CNC(=N)NCCC[C@H](NC(=O)[C@H](CC(C)C)NC(=O)NNC(=O)[C@H](Cc1ccccc1)NC(=O)[C@@H](NC(=O)[C@H](CC(N)=O)NC(=O)[C@@H]1CCCCN1C(=O)[C@@H](Cc1ccc(O)cc1)NC(C)=O)[C@@H](C)O)C(=O)N[C@@H](Cc1c[nH]c2ccccc12)C(N)=O (Ac-[dY][Pip]NTF[azaGly]L[Arg(Me)]W-NH2)
A: 17

Q: // next record CNC(=N)NCCC[C@H](NC(=O)[C@H](CC(C)C)NC(=O)NNC(=O)[C@H](Cc1ccccc1)NC(=O)[C@@H](NC(=O)[C@H](CC(N)=O)NC(=O)[C@H]1CCCN1C(=O)[C@@H](Cc1ccc(O)cc1)NC(C)=O)[C@@H](C)O)C(=O)N[C@@H](Cc1c[nH]c2ccccc12)C(N)=O
A: 110

Q: // next record CNC(=N)NCCC[C@H](NC(=O)[C@H](CC(C)C)NC(=O)NNC(=O)[C@H](Cc1ccccc1)NC(=O)[C@@H](NC(=O)[C@H](CC(N)=O)NC(=O)[C@@H]1Cc2ccccc2CN1C(=O)[C@@H](Cc1ccc(O)cc1)NC(C)=O)[C@@H](C)O)C(=O)N[C@@H](Cc1c[nH]c2ccccc12)C(N)=O
A: 7

Q: // next record CNC(=N)NCCC[C@H](NC(=O)[C@H](CC(C)C)NC(=O)NNC(=O)[C@H](Cc1ccccc1)NC(=O)[C@@H](NC(=O)[C@H](CC(N)=O)NC(=O)c1ccccc1NC(=O)[C@@H](Cc1ccc(O)cc1)NC(C)=O)[C@@H](C)O)C(=O)N[C@@H](Cc1c[nH]c2ccccc12)C(N)=O (Ac-[dY][2Abz]NTF[azaGly]L[Arg(Me)]W-NH2)
A: 47

Q: // next record CNC(=N)NCCC[C@H](NC(=O)[C@H](CC(C)C)NC(=O)NNC(=O)[C@H](Cc1ccccc1)NC(=O)[C@@H](NC(=O)[C@H](CC(N)=O)NC(=O)[C@@H](CCC(=O)O)NC(=O)[C@@H](Cc1ccc(O)cc1)NC(C)=O)[C@@H](C)O)C(=O)N[C@@H](Cc1c[nH]c2ccccc12)C(N)=O
A: 40
